Test: terephthalic acid (TPA) released, HPLC; higher = more TPA released; extreme values may be limits of the assay
Details: PET substrate: aFilm; 60 °C; pH 5.5; 24 h
MEASUREMENT_TYPE: terephthalic acid (mM)

{"BIOPOLYMER_SEQUENCE": "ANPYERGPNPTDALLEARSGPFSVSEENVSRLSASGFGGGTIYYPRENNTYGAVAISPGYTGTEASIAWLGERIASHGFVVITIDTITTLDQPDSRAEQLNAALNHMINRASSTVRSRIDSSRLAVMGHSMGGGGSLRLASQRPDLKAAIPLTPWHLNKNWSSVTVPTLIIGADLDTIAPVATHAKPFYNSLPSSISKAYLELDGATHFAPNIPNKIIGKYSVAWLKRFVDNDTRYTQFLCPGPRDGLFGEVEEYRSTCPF [TfCut2]", "RESULT": 0.0433}
{"BIOPOLYMER_SEQUENCE": "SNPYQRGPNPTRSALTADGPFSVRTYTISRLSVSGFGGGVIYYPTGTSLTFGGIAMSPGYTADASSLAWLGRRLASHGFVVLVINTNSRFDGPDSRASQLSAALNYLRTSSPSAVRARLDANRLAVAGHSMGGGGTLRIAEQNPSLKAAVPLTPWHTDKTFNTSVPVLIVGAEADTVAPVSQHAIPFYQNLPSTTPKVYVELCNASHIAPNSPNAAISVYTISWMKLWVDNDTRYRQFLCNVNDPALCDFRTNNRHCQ [LCC-ICCG RIP]", "RESULT": 0.202}

###

Assay: BHET released, HPLC; higher = more BHET released; extreme values may be limits of the assay
Details: PET substrate: aFilm; 70 °C; pH 6.5; 24 h
MEASUREMENT_TYPE: BHET released (mM)

{"BIOPOLYMER_SEQUENCE": "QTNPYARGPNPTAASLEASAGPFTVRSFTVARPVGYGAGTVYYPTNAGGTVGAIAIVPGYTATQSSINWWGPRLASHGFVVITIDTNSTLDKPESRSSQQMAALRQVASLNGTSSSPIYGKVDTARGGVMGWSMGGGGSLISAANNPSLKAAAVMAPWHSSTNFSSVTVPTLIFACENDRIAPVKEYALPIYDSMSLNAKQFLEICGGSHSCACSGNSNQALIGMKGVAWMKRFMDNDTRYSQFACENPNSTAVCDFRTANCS [HotPETase]", "RESULT": 0}
{"BIOPOLYMER_SEQUENCE": "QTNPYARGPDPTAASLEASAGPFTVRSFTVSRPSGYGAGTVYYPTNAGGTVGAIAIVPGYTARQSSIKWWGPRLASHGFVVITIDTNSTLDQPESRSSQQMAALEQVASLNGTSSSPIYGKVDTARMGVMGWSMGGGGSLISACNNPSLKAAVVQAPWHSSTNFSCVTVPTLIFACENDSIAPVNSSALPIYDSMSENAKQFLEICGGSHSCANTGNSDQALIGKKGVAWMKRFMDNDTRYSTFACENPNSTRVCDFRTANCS [Z1-PETase]", "RESULT": 0}
{"BIOPOLYMER_SEQUENCE": "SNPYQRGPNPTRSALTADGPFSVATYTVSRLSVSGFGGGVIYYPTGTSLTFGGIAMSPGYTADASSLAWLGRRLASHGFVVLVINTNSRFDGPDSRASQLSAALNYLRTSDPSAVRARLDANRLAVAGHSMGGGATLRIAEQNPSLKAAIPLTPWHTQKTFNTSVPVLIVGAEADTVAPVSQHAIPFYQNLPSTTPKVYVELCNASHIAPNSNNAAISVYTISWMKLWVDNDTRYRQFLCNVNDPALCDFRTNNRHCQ [LCC-ICCG DAQI]", "RESULT": 0.00777}

###

Assay: MHET released, HPLC; higher = more MHET released; extreme values may be limits of the assay
Details: PET substrate: cryPow; 60 °C; pH 4.5; 24 h
Let's look at some sequences and their measured MHET released.
MEASUREMENT_TYPE: MHET released (mM)

{"BIOPOLYMER_SEQUENCE": "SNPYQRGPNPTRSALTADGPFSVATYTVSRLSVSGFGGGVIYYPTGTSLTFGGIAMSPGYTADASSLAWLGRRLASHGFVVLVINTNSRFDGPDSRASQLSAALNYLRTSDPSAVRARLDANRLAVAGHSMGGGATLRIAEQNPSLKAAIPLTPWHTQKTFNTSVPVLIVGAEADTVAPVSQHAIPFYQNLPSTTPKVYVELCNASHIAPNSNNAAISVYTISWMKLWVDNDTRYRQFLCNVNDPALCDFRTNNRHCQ [LCC-ICCG DAQI]", "MEASUREMENT_TYPE": "MHET released", "RESULT": 0.033}
{"BIOPOLYMER_SEQUENCE": "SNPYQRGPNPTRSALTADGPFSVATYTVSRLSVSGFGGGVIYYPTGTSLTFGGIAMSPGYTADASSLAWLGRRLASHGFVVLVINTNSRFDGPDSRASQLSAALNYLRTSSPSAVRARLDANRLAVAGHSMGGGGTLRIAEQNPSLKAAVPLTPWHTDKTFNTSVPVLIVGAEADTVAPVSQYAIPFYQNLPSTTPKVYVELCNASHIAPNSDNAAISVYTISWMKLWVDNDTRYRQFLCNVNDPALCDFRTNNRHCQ [LCC-A2]", "MEASUREMENT_TYPE": "MHET released", "RESULT": 0.102}
{"BIOPOLYMER_SEQUENCE": "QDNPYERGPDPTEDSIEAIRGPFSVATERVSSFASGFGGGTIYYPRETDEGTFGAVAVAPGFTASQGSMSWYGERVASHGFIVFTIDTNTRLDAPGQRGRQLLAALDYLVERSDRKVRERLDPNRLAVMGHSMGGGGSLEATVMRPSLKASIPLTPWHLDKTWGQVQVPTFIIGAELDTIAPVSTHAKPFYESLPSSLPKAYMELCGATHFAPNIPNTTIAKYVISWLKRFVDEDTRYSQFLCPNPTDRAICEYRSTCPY [Cut190*SS]", "MEASUREMENT_TYPE": "MHET released", "RESULT": 0}

###

Assay: terephthalic acid (TPA) released, HPLC; higher = more TPA released; extreme values may be limits of the assay
Settings: PET substrate: aFilm; 70 °C; pH 6.5; 24 h
MEASUREMENT_TYPE: terephthalic acid (mM)

{"BIOPOLYMER_SEQUENCE": "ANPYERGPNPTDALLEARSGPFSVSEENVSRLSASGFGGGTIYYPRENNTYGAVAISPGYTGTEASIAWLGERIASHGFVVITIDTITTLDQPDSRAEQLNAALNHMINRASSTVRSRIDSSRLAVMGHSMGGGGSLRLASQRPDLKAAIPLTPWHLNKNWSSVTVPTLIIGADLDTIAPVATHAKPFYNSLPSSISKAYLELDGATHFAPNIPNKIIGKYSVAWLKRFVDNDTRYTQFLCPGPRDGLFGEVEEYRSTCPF [TfCut2]", "RESULT": 0}
{"BIOPOLYMER_SEQUENCE": "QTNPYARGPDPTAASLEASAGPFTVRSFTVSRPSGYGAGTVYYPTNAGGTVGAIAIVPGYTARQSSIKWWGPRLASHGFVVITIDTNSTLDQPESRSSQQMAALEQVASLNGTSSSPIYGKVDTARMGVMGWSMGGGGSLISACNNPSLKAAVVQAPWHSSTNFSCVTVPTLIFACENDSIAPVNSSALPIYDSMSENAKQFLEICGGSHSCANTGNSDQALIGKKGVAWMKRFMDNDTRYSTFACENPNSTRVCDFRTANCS [Z1-PETase]", "RESULT": 0}
{"BIOPOLYMER_SEQUENCE": "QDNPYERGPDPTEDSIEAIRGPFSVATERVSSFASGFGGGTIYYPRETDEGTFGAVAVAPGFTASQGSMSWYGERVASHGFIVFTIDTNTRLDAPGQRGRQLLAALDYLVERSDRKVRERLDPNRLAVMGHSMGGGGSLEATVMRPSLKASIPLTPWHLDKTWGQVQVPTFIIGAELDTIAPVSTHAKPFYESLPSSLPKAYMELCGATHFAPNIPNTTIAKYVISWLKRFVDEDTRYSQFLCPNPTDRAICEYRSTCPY [Cut190*SS]", "RESULT": 0}

###

Experiment: PET hydrolysis product formed (TPA+MHET+BHET, UV-Vis) per mg enzyme (mmol/mg enzyme); higher = more PET depolymerisation activity; extreme values may be limits of the assay
Settings: PET substrate: cryPow; 70 °C; pH 7.5; 2 h

{"BIOPOLYMER_SEQUENCE": "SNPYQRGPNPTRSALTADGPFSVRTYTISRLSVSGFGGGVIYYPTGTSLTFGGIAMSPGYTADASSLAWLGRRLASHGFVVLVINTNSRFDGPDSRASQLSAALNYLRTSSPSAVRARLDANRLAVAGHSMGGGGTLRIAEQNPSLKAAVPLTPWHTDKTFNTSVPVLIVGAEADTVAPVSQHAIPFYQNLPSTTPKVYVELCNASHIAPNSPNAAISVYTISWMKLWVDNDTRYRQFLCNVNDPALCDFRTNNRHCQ [LCC-ICCG RIP]", "PET hydrolysis product formed": 0.045}
{"BIOPOLYMER_SEQUENCE": "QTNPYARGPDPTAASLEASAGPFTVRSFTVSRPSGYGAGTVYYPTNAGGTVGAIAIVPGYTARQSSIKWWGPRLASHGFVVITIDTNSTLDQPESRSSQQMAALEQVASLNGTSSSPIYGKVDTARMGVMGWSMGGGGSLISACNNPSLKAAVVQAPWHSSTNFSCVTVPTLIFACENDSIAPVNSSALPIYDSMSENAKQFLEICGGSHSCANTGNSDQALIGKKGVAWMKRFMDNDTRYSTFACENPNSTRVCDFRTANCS [Z1-PETase]", "PET hydrolysis product formed": 0.0688}
{"BIOPOLYMER_SEQUENCE": "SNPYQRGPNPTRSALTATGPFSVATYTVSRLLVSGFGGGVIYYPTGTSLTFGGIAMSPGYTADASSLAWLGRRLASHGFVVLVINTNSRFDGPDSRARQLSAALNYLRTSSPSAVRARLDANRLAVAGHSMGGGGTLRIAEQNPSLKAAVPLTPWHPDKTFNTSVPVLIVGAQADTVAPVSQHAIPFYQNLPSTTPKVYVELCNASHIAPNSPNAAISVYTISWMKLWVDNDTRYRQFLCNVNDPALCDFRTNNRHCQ [LCC-ICCG I6M]", "PET hydrolysis product formed": 0.0329}
{"BIOPOLYMER_SEQUENCE": "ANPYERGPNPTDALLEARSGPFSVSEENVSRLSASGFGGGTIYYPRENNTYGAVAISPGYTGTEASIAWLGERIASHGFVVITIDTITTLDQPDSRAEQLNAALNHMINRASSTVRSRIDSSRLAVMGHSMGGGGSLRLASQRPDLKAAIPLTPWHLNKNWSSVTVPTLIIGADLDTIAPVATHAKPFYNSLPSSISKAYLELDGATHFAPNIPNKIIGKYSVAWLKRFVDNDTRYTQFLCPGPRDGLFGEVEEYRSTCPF [TfCut2]", "PET hydrolysis product formed": 0}
{"BIOPOLYMER_SEQUENCE": "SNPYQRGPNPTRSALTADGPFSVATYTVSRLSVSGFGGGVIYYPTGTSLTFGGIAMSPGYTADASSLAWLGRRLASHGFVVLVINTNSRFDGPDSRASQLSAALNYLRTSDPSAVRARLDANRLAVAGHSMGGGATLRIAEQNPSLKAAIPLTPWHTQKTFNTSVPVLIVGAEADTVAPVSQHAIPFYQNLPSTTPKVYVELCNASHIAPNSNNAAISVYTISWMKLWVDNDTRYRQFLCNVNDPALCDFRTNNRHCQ [LCC-ICCG DAQI]", "PET hydrolysis product formed": 0.0606}
